- assayed.system: PI3Kalpha (Homo sapiens (Human), UniProt P42336)
- Sequence (P42336 whole entry, looked up): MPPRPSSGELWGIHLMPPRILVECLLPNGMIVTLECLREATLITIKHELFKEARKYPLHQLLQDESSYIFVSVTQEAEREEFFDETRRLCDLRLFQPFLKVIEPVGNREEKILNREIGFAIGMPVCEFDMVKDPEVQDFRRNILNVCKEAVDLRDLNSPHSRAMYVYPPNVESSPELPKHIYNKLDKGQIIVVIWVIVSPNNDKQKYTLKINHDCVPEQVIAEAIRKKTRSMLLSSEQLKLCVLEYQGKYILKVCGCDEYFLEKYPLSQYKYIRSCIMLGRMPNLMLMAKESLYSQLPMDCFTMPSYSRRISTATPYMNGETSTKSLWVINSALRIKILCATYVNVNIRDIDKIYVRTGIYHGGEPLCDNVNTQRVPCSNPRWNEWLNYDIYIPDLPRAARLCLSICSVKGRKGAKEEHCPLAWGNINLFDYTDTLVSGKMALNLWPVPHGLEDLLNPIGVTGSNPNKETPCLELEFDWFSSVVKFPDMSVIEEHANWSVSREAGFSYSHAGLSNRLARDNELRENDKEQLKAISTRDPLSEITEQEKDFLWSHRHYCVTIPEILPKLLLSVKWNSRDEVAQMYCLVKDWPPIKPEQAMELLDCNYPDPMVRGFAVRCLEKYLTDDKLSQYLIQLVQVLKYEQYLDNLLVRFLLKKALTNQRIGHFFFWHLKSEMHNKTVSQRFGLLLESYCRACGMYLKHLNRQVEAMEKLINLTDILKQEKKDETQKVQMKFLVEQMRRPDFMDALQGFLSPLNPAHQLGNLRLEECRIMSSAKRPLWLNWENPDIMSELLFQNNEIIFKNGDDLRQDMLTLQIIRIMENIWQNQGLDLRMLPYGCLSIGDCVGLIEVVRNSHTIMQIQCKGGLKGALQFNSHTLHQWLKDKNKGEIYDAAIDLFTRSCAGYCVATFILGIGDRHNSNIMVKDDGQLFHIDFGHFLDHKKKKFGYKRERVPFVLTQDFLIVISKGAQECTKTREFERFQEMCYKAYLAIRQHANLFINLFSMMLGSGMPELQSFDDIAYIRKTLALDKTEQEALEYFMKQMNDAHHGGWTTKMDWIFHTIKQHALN
# true = IC50 below 500 nM (exclusive); false = IC50 at/above 500 nM

Lab log: compare recorded IC50 with 500 nM; is it strictly lower for CCc1ncnc(-c2ccc(C(=O)N(C)O)c(F)c2)c1C#Cc1ccc(N)nc1 ?
true

Lab log: compare recorded IC50 with 500 nM; is it strictly lower for CCc1ncnc(-c2ccc(C(=O)N3CCN(CC)CC3)c(Cl)c2)c1C#Cc1ccc(NC)nc1 ?
true

Lab log: compare recorded IC50 with 500 nM; is it strictly lower for CCc1ncnc(-c2cc(F)c(C(=O)N3CCN(C=O)CC3)c(F)c2)c1C#Cc1ccc(NC)nc1 ?
true

Lab log: compare recorded IC50 with 500 nM; is it strictly lower for CCc1ncnc(-c2cc(F)c(C(=O)N3CC[C@@H](N(C)C)C3)c(F)c2)c1C#Cc1ccc(NC)nc1 ?
false

Lab log: compare recorded IC50 with 500 nM; is it strictly lower for CCc1ncnc(-c2ccc(N(C)C)nc2)c1C#Cc1ccc(N)nc1 ?
true

Lab log: compare recorded IC50 with 500 nM; is it strictly lower for CCc1ncnc(-c2ccc(C(=O)NCCN3CCOCC3)c(OC)c2)c1C#Cc1ccc(N)nc1 ?
true

Lab log: compare recorded IC50 with 500 nM; is it strictly lower for CCc1ncnc(-c2cc(Cl)c(C(=O)N3CCC4(CC3)CN(C)C4)c(Cl)c2)c1C#Cc1ccc(N)nc1 ?
false

Lab log: compare recorded IC50 with 500 nM; is it strictly lower for CCc1ncnc(-c2ccc(C(=O)N3CCN(C(C)C)CC3)c(OC(F)(F)F)c2)c1C#Cc1ccc(N)nc1 ?
false

Lab log: compare recorded IC50 with 500 nM; is it strictly lower for CCc1ncnc(-c2ccc(C(=O)N3CCC4(CNC4)C3)c(F)c2)c1C#Cc1ccc(N)nc1 ?
false

Lab log: compare recorded IC50 with 500 nM; is it strictly lower for CCc1ncnc(-c2ccc(C(=O)N3CCCN(C)CC3)c(Cl)c2)c1C#Cc1ccc(N)nc1 [Example D-154] ?
true

Lab log: compare recorded IC50 with 500 nM; is it strictly lower for CCc1ncnc(-c2ccc(C(=O)N3CCN(/C(=N\C#N)NC)CC3)c(F)c2)c1C#Cc1ccc(N)nc1 ?
true

Lab log: compare recorded IC50 with 500 nM; is it strictly lower for CCc1ncnc(-c2ccc(C(=O)N(C)CC3CCCN(C)C3)c(F)c2)c1C#Cc1ccc(N)nc1 (stereo not drawn) ?
true

Lab log: compare recorded IC50 with 500 nM; is it strictly lower for CCc1ncnc(-c2ccc(C(=O)N3CCN(C(C)C)CC3)c(F)c2)c1C#Cc1ccc(N)nc1 ?
true

Lab log: compare recorded IC50 with 500 nM; is it strictly lower for CCc1ncnc(-c2ccc(C(=O)N3CCN(CC4CCCCC4)CC3)c(OC)c2)c1C#Cc1ccc(N)nc1 ?
false

Lab log: compare recorded IC50 with 500 nM; is it strictly lower for CCc1ncnc(-c2ccc(C(=O)N3CCOC4(CCN(C(=O)OC(C)(C)C)CC4)C3)c(F)c2)c1C#Cc1ccc(N)nc1 ?
false
